# target under test: biotinylated EIIIB (protein fragment of fibronectin splice variant EIIIB) (Homo sapiens (sequence identical in …, UniProt P02751, strain, biotin (ChromaLink NHS-biotin reagent)))
# Sequence (P02751 1266-1356, change not shown): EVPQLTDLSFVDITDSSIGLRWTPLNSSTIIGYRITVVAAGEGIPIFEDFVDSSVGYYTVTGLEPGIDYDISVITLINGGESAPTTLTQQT
result type: binding result

Some binders with recorded binding result:
>>> result("LMJ1.2G (VHH) VHH: QVQLVETGGGLVQAGGSLRLSCAASGSTFSHSAGGWYRQAPEKQRELVAGIGSDGNINYADSVKDRFTISRDNASNTMYLQMNNLKPEDTAVYVCNIRGSYGNTYYSRWGQGTQVTVSS")
"binds"
>>> result("LMJ1.3J (VHH) VHH: QVQLVGTGGGLVQAGGSLRLSCAASGSTFSHSAGGWYRQAPEKQRELVAGISSAGNINYADSVKDRFTISRDNASNTMYLQMNNLKPEDTAVYVCNIRGSYGNTYYSRWGQGTQVTVSS")
"binds"
>>> result("LMJ2.6A (VHH) VHH: RVQLVETGGGLVQAGGSLRLSCAVSGRTFSHSAGGWYRQAPEKQRELVAGIRSDGNINYADSVKDRFTISRDNASNTMYLQMNNLKPGDTAVYVCNIRGSYGNTYYSRWGQGTQVTVSS")
"binds"
>>> result("LMJ2.5J (VHH) VHH: QVQLVETRGGLVQAGGSLRLSCAVSGSTFSHSAGGWYRQAPEKQRELVAGIGSAGNINYADSVKDRFTISRDNASNTMYLQMNNLKPEDTAVYVCNIRGSYGNTYYSRWGQGTQVTVSS")
"binds"

From here, focus on the item given below.
Q) Reported binding result for LMJ2.5C (VHH) VHH: QVQLVETGGGLVQAGGSLRLSCAASGSTFSHSAGGWYRQAPEKQRELVAGVRSDGNINYADSVKDRFTISRDNASNTMYLQMNNLKPEDTAVYVCNIRGSYGNTYYSRWGQGIQVTVSS : what is it?
A) binds
